B1: MFF (parent)
chain: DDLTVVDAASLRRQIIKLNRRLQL

# Variants of: B1
# assay.name: protein stability index of a GFP-peptide fusion (GPS, HEK-293T) (PSI 1-6); higher = more stable;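 note: lentivirally expressed fusions sorted by FACS into six bins by GFP to DsRed ratio, PSI derived from sequencing read proportions per bin multiplied by bin number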
# assay.conditions: c terminus: a fixed tail appended
The following variants are shown together with reported protein stability index values.

# annotated cases, reported protein stability index shown
{"changes": "D2F", "protein stability index": 2.48}
{"changes": "Q14Y", "protein stability index": 1.54}

IN: Provide protein stability index value for the following variant: S10A
OUT: 1.7

IN: Provide protein stability index value for the following variant: I16N
OUT: 2.8

IN: Provide protein stability index value for the following variant: R20H
OUT: 2.26

IN: Provide protein stability index value for the following variant: Q14M
OUT: 1.04

IN: Provide protein stability index value for the following variant: D7W
OUT: 1.92

Cited source: the supplement of paper PMC10567573
